Would you mind telling me the reported cytotoxicity at 70.5 h of each entry?
# Assay Info: Human HepG2 cell viability assay in 384 well format
# Format: toxicity, cell-based
# Parameters: dose 125 nL, time 70.5 hour; concentration not given beside the values
# Conditions: HepG2 cells, read-out: Inhibition
The response must be a number in % with no trailing unit.

The reported cytotoxicity at 70.5 h of the compound c1ccc(-c2ncn(CCCN3CCOCC3)c2-c2ccncc2)cc1 was -6.69

The reported cytotoxicity at 70.5 h of the compound c1cncc(-c2ccnn2CN2CCC3(CC2)OCCO3)c1 was -5.34

The reported cytotoxicity at 70.5 h of the compound COc1cc(NC(=O)c2ccc(C)cc2C)c(C(=O)N(C)C)cc1OC was 4.46

The reported cytotoxicity at 70.5 h of the compound CCc1cnc2c(c1Nc1cccc(OC)c1)c(=O)n(C)c(=O)n2C was 1.18

The reported cytotoxicity at 70.5 h of the compound Cc1ccc(CN2CCc3c(COCC4CC4)nn(C)c3C2)s1 was 21.5

The reported cytotoxicity at 70.5 h of the compound N#Cc1cccnc1N1CCC(OCc2ccccc2)CC1 was -8.71
